- TESTED SYSTEM: full-length human PKCι (Homo sapiens, UniProt P41743)
- Construct: Recombinant, full-length human PKCι expressed in Sf21 insect cells is also commercially available
- Sequence (P41743 1-596): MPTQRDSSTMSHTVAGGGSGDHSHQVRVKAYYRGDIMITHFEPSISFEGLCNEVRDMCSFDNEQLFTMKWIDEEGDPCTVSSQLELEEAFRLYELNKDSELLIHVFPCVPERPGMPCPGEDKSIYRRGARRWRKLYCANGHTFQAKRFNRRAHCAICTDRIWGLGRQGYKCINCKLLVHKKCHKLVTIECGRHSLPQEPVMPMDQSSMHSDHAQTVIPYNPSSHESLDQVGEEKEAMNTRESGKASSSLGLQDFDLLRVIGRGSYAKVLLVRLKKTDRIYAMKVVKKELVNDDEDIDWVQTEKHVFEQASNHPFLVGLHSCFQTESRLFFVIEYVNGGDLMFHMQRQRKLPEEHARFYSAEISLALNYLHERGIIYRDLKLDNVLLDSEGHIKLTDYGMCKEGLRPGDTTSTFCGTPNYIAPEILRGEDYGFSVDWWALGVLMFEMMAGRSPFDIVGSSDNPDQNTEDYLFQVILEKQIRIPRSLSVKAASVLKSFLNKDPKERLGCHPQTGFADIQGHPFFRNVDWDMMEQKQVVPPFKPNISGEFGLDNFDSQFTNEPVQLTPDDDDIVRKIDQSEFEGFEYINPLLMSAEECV
- MEASUREMENT PROTOCOL: PKCι IC50 IMAP assay, full-length PKCι at 150 μM ATP
- TEST CONDITIONS: read-out: IC50 in IMAP assay against full length PKCi at 150 μM ATP
EXPERIMENTAL READOUT: IC50

Before answering, review these 3 worked examples.
MOLECULE	IC50
Fc1cc(F)c(F)c(Nc2cc(-c3nc(N[C@@H]4CCNC4)c4c(C5CC5)cncc4n3)ccn2)n1	< 100 nM
COc1cncc2nc(-c3ccncc3)nc(N3CCNC(C(=O)Nc4ccccc4)C3)c12 (stereo not shown)	1000 to 10000 nM
COc1cc(Nc2cc(-c3nc(N4CCNCC4)c4c(C5CC5)cncc4n3)ccn2)ccc1C1CC1	< 100 nM

Lookup result for COc1cncc2nc(-c3ccnc(Nc4cncnc4)c3)nc(N3CCNCC3)c12 ; measured IC50: 100 to 1000 nM
